Where these numbers come from: patent US20050282818A1

Below, each entry is listed alongside its reported IC50.
Target: TRAF6/Uev1A/Ubc13 (Homo sapiens)
Sequence (Q9Y4K3 whole entry): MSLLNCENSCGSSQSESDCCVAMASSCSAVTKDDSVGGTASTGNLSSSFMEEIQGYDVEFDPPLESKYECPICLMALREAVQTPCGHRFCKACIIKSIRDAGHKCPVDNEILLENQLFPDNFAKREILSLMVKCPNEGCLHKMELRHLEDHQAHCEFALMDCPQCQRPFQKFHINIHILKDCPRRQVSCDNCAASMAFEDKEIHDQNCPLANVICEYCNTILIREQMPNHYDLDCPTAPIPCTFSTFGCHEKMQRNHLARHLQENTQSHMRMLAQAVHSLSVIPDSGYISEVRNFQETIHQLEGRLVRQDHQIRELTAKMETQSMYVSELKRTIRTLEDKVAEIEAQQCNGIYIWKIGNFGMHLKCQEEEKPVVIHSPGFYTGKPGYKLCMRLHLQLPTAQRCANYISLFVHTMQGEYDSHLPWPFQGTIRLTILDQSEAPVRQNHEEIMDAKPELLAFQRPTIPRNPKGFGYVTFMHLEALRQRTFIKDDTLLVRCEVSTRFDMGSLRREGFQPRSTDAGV
Experiment: TRAF6/Uev1A/Ubc13 plate-based ubiquitin ligase assay

The cases that follow already have their IC50 on record.
• O=[N+]([O-])c1ccc(N2CCC3(CC2)OCc2ccccc23)c2nonc12 [compound 284] = 1 to 20 µM
• COc1ccc(C)cc1NS(=O)(=O)c1ccc(Cl)c2nonc12 [compound 381] = ≥ 20 µM
• O=[N+]([O-])c1ccc(Nc2ccc3[nH]ncc3c2)c2nonc12 [compound 222] = 1 to 20 µM
• Fc1cc2nonc2c(N2CCOCC2)c1F [compound 405] = ≥ 20 µM
• O=[N+]([O-])c1c(N2CCCCC2)cc(N2CCC3(CC2)OCc2ccccc23)c2nonc12 [compound 300] = ≥ 20 µM

Entry under test: CC1(C)CCN(S(=O)(=O)c2ccc(F)c3nonc23)CC1 [compound 243] . Its IC50 was ≥ 20 µM

The compound Cc1ccc(-c2ccc([N+](=O)[O-])c3nonc23)cc1 [compound 468] showed IC50 equal to ≥ 20 µM

The reported IC50 of the compound O=[N+]([O-])c1ccc(N2CCSCC2)c2nonc12 [compound 237] was ≥ 20 µM

Summary for this compound, COc1ccccc1Nc1ccc(S(=O)(=O)Nc2ccccc2F)c2nonc12 [compound 404] : IC50 is ≥ 20 µM
